# Procedure Summary: Fluorescence spectra of thiophene derivatives in solvents of different polarity
# Format: physicochemical
# Condition Label: DMSO, ET(30) 45.1
Parameter: Maximum fluorescence emission wavelength (nm)
Number in nm, nothing else.

Past entries and their recorded results:
Compound	Maximum fluorescence emission wavelength / nm
CCCCCCN(CCCCCC)c1ccc(-c2ccc(-c3ccncc3)s2)cc1 [Compound 3]	522
CCCCCCN(CCCCCC)c1ccc(-c2ccc(-c3ccccn3)s2)cc1 [Compound 4]	507
CCCCCCN(CCCCCC)c1ccc(-c2ccc(-c3ncccn3)s2)cc1 [Compound 5]	522

# input for lookup
Query string: Which Maximum fluorescence emission wavelength is listed for CCCCCCN(CCCCCC)c1ccc(-c2ccc(-c3cc[n+](C)cc3)s2)cc1.[I-] [Compound 6] ?
Result string: 653
